Quick reference: growth inhibition of the listed items.
assay: NCI Yeast Anticancer Drug Screen. Data for the bub3 strain (AID 167); details: S. cerevisiae bub3 mutant strain, at 50.0 µM, hits give high values
Compounds without any hit were thinned out: in the full panel of roughly 79,000, 15% have a hit. The source made the active and inactive calls. Rule as the data show it: active = growth inhibition above about 70%; inactive = the rest.

- compound: "CC1COC(C)(C2CC2)O1 (stereo not given)"
  growth inhibition: "7.45% (inactive)"
- compound: "CCN(CC)CN(CC)CC"
  growth inhibition: "10.9% (inactive)"
- compound: "[N-]=[N+]=Nc1ccccc1Oc1ccccc1"
  growth inhibition: "-16.6% (inactive)"
- compound: "CCCCCCCCCCCCCCCCCCCCCCCCSC(=N)N"
  growth inhibition: "-6.15% (inactive)"
- compound: "c1ccc(CCCOCCCc2ccccc2)cc1"
  growth inhibition: "51.2% (inactive)"
- compound: "CN(CO)N=Nc1ccc(C(F)(F)F)cc1"
  growth inhibition: "13.2% (inactive)"
- compound: "O=C(OCc1ccc([N+](=O)[O-])cc1)N1c2ccccc2[C@@]23O[C@]24CCC[C@H]3C#C/C=C\\C#C[C@H]14"
  growth inhibition: "9.85% (inactive)"
- compound: "O=C(OCC1OC(C2N(c3ccccc3)CCN2c2ccccc2)C(OC(=O)c2ccccc2)C1OC(=O)c1ccccc1)c1ccccc1 (stereo not given)"
  growth inhibition: "-11.9% (inactive)"
- compound: "Cc1c2c(n3c(nc4ccccc43)c1C#N)N(c1ccc(Cl)cc1)CC2"
  growth inhibition: "-6.4% (inactive)"
- compound: "O=c1[nH]c2cc(Cl)ccc2nc1/C=C(\\O)c1ccc2ccccc2c1"
  growth inhibition: "-16.6% (inactive)"
- compound: "CCN(CC)CCNCc1c[nH]c(=S)[nH]c1=O"
  growth inhibition: "1.35% (inactive)"
- compound: "Nc1nc2c(ncn2CC2CCOC2=O)c(=O)[nH]1 (stereo not given)"
  growth inhibition: "-5.85% (inactive)"
- compound: "Nc1ncnc2c1c1cncnc1n2C1OC(CO)C(O)C1O (stereo not given)"
  growth inhibition: "7.45% (inactive)"
- compound: "COC(=O)/C=C(/C)c1ccccc1"
  growth inhibition: "1.45% (inactive)"
- compound: "O=S1(=O)CCCCc2ccccc21"
  growth inhibition: "1.85% (inactive)"
- compound: "CCCCCCCCCCCCCCCC(=O)NC(CCCCN)C(=O)NC(CCCCN)C(=O)OCC (stereo not given)"
  growth inhibition: "47.4% (inactive)"
- compound: "COC1CC(NC(=O)C(F)(F)F)C(O)C(CNC(=O)C(F)(F)F)O1 (stereo not given)"
  growth inhibition: "16.1% (inactive)"
- compound: "O=C(CN1C(=O)CC(c2ccccc2)(c2ccccc2)C1=O)N1CCN(CCO)CC1"
  growth inhibition: "-16.2% (inactive)"
- compound: "COc1cccc(/C=C(\\C#N)C(=O)c2ccccc2)c1"
  growth inhibition: "13.9% (inactive)"
- compound: "CCOC(=O)CC(C(=O)OCC)c1ccccc1 (stereo not given)"
  growth inhibition: "9.85% (inactive)"
- compound: "CN(C)C(CO)(CO)CO"
  growth inhibition: "3.3% (inactive)"
- compound: "CCC1CC(=O)NC(=O)NC1=O (stereo not given)"
  growth inhibition: "7.2% (inactive)"
- compound: "N/N=C(\\c1ccccc1)C(Nc1ccccc1)c1ccccc1 (stereo not given)"
  growth inhibition: "-5.15% (inactive)"
- compound: "Cc1ccc2nc(-c3cccc([N+](=O)[O-])c3)c(N=O)n2c1"
  growth inhibition: "2.1% (inactive)"
- compound: "O=C1OC2C(O)COC2(O)C1(O)Cc1c[nH]c2ccccc12 (stereo not given)"
  growth inhibition: "3.35% (inactive)"

Numbers sourced from PubChem BioAssay (NCI).
